Test Details: Pharmacokinetic study of DPTM in rats after i.v., i.m. and p.o. administration (HPLC-MS/MS, non-compartmental)
Format: in vivo
Measurement Context: Sprague-Dawley, plasma, iv; rat, i.v., 75 mg/kg; read-out: CLR(0–t) renal clearance
Readout Type: CL renal (mL/min)
Numeric answer only, unit mL/min assumed.

Let me know recorded CL renal for C=CC1(C)CC(OC(=O)CSc2nc(N)cc(N)n2)C2(C)C(C)CCC3(CCC(=O)C32)C(C)C1O (stereo not shown) [DPTM] , thanks.
97.6

* * *

Test Details: Pharmacokinetic study of DPTM in rats after i.v., i.m. and p.o. administration (HPLC-MS/MS, non-compartmental)
Type: in vivo
Measurement Context: Sprague-Dawley, rat, plasma, im, 75 mg/kg, rat serum, i.m., 75 mg/kg; read-out: Cmax
Readout Type: Cmax (ng/mL)
Please state the figure in ng/mL; there is no need to write the unit.

In one line, give reported Cmax of the entry C=CC1(C)CC(OC(=O)CSc2nc(N)cc(N)n2)C2(C)C(C)CCC3(CCC(=O)C32)C(C)C1O (stereo not shown) .
1800
